experiment: Quantitation of tamoxifen and its metabolites in patient serum by LC-MS/MS; details: human, in vivo
Could you please report measured Reference Ranges for the items listed next?

Molecule	Result
CC/C(=C(\c1ccc(O)cc1)c1ccc(OCCNC)cc1)c1ccccc1 [N-Desmethyl-4-Hydroxy Tamoxifen]	0.93 to 43.19 ng/mL
CCC(=C(c1ccccc1)c1ccc(OCCNC)cc1)c1ccc(O)cc1 [N-Desmethyl-4′-Hydroxy Tamoxifen]	1.17 to 19.95 ng/mL

Items follow; give Reference Ranges for each.
1. CC/C(=C(\c1ccccc1)c1ccc(OCCN(C)C)cc1)c1ccc(O)cc1 [4′-Hydroxy Tamoxifen]
2. CC/C(=C(\c1ccccc1)c1ccc(OCCNC)cc1)c1ccccc1

1. 0.4 to 6.33 ng/mL
2. 2.59 to 373.96 ng/mL

Values compiled from patent US10830746B2.
